Target: Mtb Pks13-TE domain (wild-type) (Mycobacterium tuberculosis)
Sequence (I6X8D2 1451-1733): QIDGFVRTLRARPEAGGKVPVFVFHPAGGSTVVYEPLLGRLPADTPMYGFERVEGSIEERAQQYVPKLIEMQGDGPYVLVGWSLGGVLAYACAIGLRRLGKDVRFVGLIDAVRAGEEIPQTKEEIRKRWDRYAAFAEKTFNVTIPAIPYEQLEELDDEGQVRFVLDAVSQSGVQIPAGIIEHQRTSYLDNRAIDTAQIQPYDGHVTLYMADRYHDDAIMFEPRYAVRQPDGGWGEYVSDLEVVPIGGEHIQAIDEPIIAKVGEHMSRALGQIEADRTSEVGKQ
Test: biochemical
Assay type: biochemical
Settings: Pks13-TE, 20 μM 4-MUH; read-out: IC50
quantity.kind: pIC50
Notebook: values listed as pIC50 are -log10 of the concentration (mol/L).

Exercise: Any idea what pIC50 was measured for CNC(=O)c1c(-c2ccccc2)oc2ccc(O)c(CCN3CCC(CCO)CC3)c12 ?
Key: 4.70

Exercise: Any idea what pIC50 was measured for CCOC(=O)c1c(-c2ccccc2)oc2ccc(O)c(CCNC3CCOC3)c12 (centres unmarked) ?
Key: 5.57

Exercise: Any idea what pIC50 was measured for CCOC(=O)/C=C/CC1CCN(CCCc2c(O)ccc3oc(-c4ccccc4)c(C(=O)OCC)c23)C1 (centres unmarked) ?
Key: 6.30

Exercise: Any idea what pIC50 was measured for CCOC(=O)c1c(-c2ccccc2)oc2ccc(O)c(CCCN3CC(F)C3)c12 ?
Key: 5.60

Exercise: Any idea what pIC50 was measured for CCOC(=O)c1c(-c2ccccc2)oc2ccc(O)c(CCN[C@@H](Cc3c[nH]cn3)C(=O)O)c12 ?
Key: 5.57

Exercise: Any idea what pIC50 was measured for CCOC(=O)c1c(-c2ccccc2)oc2ccc(O)c(CCNC(CO)Cc3cnc[nH]3)c12 (centres unmarked) ?
Key: 5.82

Exercise: Any idea what pIC50 was measured for CCOC(=O)c1c(-c2ccc(O)cc2)oc2ccc(O)c(CN3CCCC(CO)C3)c12 (centres unmarked) ?
Key: 6.40

Exercise: Any idea what pIC50 was measured for CNC(=O)c1c(-c2cccc(O)c2)oc2ccc(O)c(CN3CCCCC3)c12 ?
Key: 6.57

Exercise: Any idea what pIC50 was measured for CCOC(=O)c1c(-c2cccc(OC)c2)oc2ccc(O)c(CN3CCCCC3)c12 ?
Key: 6.44

Exercise: Any idea what pIC50 was measured for CCOC(=O)c1c(-c2ccccc2)oc2ccc(O)c(CCCN3CCSC3)c12 ?
Key: 5.30

Exercise: Any idea what pIC50 was measured for CNC(=O)c1c(-c2cc(F)c(O)c(F)c2)oc2ccc(O)c(CN3CCCCC3)c12 ?
Key: 5.82

Exercise: Any idea what pIC50 was measured for CCOC(=O)c1c(-c2ccc(O)cc2)oc2ccc(O)c(CN3CCCCC3)c12 ?
Key: 6.72

Exercise: Any idea what pIC50 was measured for CNC(=O)c1c(-c2ccc(O)cc2)oc2ccc(O)c(CNC3CCCC3)c12 ?
Key: 6.00

Exercise: Any idea what pIC50 was measured for CNC(=O)c1c(-c2ccccc2)oc2ccc(O)c(CN3CCCCC3)c12 ?
Key: 6.54

Exercise: Any idea what pIC50 was measured for CCOC(=O)c1c(-c2ccccc2)oc2cc(N)c(O)c(CN3CCCCC3)c12 ?
Key: 6.43
